Biological target: αllbβ3 receptor (Homo sapiens, UniProt P05106+P08514)
Sequence (P08514 32-1039): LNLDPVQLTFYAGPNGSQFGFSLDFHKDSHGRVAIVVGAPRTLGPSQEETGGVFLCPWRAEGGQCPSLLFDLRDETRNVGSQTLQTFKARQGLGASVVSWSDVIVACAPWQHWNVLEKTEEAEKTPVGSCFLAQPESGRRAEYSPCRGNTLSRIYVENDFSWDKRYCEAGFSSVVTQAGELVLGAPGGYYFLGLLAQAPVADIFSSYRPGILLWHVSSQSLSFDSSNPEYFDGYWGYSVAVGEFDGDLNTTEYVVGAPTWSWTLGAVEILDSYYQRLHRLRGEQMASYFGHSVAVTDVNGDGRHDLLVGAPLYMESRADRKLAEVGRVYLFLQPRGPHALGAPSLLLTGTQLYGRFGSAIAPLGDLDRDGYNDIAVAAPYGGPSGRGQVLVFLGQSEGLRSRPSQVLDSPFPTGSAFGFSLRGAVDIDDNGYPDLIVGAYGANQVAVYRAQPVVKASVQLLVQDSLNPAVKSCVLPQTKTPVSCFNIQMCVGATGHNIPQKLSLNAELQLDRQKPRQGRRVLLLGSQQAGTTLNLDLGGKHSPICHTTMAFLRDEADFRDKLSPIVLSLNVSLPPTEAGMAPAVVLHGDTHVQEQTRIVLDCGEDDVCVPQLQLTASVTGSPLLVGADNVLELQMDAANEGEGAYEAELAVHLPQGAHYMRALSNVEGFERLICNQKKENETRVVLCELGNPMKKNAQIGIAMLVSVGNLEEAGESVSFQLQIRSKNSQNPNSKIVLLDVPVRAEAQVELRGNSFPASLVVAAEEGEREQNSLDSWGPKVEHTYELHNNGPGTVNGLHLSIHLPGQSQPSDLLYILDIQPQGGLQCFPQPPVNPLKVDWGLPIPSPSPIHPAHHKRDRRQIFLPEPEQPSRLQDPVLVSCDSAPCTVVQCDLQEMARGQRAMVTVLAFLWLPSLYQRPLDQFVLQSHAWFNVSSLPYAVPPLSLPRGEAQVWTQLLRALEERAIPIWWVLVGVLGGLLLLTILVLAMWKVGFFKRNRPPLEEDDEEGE
Sequence (P05106 27-788): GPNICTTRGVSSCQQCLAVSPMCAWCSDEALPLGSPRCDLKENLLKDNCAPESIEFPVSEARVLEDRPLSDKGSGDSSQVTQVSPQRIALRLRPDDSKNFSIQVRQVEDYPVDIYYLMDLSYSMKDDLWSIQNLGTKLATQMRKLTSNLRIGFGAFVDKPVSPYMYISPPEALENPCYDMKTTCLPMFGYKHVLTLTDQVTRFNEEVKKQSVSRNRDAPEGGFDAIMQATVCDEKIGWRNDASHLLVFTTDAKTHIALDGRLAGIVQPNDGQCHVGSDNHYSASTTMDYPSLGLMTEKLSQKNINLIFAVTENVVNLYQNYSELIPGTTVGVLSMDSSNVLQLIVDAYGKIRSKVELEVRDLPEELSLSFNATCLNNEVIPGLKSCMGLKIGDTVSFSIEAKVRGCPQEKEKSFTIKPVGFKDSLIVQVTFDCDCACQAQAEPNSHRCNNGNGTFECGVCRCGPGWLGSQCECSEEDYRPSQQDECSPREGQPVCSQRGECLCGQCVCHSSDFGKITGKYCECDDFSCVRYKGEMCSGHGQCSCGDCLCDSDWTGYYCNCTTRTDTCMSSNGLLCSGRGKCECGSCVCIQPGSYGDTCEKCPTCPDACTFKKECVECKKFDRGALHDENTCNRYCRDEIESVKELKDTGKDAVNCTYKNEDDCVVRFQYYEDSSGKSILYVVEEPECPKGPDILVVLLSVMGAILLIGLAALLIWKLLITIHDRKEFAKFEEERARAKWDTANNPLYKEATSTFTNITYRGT
Experiment: similar competitive assay with purified αllbβ3 receptor and 125I-echistatin (specificity index versus αvβ3)
Format: binding
Conditions: IC50 αllbβ3 / IC50 αvβ3
parameter: SPECIFICITY αIIb β3/αvβ3 (specificity index)
Just the number, please.

Measured SPECIFICITY αIIb β3/αvβ3 (specificity index) of O=C(NC[C@H](NS(=O)(=O)c1ccccc1)C(=O)O)c1ccc(CN(Cc2nc3ccccc3[nH]2)C(=O)NC2CCCCC2)cc1 [Example 5-81] : 8.0

Measured SPECIFICITY αIIb β3/αvβ3 (specificity index) of O=C(N[C@@H](CNC(=O)c1ccc(CN(Cc2nc3ccccc3[nH]2)C(=S)NCCc2ccccc2)cc1)C(=O)O)OCc1ccccc1 [Example 5-31] : 80

Measured SPECIFICITY αIIb β3/αvβ3 (specificity index) of O=C(N[C@@H](CNC(=O)c1ccc(CN(Cc2nc3ccccc3[nH]2)C(=O)COc2ccccc2)cc1)C(=O)O)OCc1ccccc1 [Example 5-19] : 34
